Where do the numbers come from? From paper PMC2936744.

- assayExplanation: in vitro
- assayContext: human
endpointLabel: CC50

smilesInput	endpointLabel	reading
CCCCCNc1nc(Nc2ccc([N+](=O)[O-])cc2)nc(OCC(F)(F)F)n1	CC50	> 50 µM

----------
- assayExplanation: in vitro
- assayContext: bovine
endpointLabel: CC50

molecule	reading
CCCCCNc1nc(Nc2ccc([N+](=O)[O-])cc2)nc(OCC(F)(F)F)n1 [EI-1]	> 50 µM

----------
- assayExplanation: in vitro
- assayContext: dog
endpointLabel: CC50

compound	endpointLabel	reading
CCCCCNc1nc(Nc2ccc([N+](=O)[O-])cc2)nc(OCC(F)(F)F)n1 [EI-1]	CC50	> 50 µM
